Data provenance is patent US20250101098A1.

Molecular target: T1, human nectin-4 protein expressed on the surface of cells (human, UniProt Q96NY8 32-510)
T1 sequence: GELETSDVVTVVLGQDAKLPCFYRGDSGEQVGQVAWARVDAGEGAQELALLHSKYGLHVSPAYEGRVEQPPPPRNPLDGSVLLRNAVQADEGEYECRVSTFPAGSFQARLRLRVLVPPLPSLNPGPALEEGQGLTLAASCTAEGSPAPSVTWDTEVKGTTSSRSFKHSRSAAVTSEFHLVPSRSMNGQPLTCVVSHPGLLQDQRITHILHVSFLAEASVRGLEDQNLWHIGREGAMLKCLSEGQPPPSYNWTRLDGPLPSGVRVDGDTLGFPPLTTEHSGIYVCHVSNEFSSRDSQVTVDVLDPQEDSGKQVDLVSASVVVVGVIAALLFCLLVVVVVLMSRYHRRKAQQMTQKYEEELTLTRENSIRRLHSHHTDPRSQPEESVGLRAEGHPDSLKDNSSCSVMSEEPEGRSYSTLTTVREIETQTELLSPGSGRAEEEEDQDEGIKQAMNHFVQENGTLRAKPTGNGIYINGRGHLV
Experiment: cell-based or functional assay
METRIC: Cell kill IC50, HekNectin4 (nM)
Field format: number, assumed nM, no unit text.

Answered cases to consult:
Nectin-4 5D9 VH2/VL1 (antibody, V domains shown, Humanized; also called 5D9 VH variant 2 / 5D9 VL variant 1) VH: QVQLQESGPGLVKPSETLSLTCTVSGFSITNYGVHWIRQPPGKGLEWLGVIWSGGSTDYNASLVSRVTISRDTSKSQFFLKLNSVQADDTAVYYCARSGKWYYFDYWGQGTTVTVSS VL: DIQMTQSPASLSASVGDTVTITCRASQNIYSNLAWYQQKQGKSPQLLVYAATNLADGVPSRFSGSGSGTQYTLKINSLQSEDFGTYYCQHFWGTPTFGGGTKVEIK: 3.93
Nectin-4 5D9 VH1/VL4 (antibody, V domains shown, Humanized; also called 5D9 VH variant 1 / 5D9 VL variant 4) VH: QVQLKESGPGLVQPSETLSLTCTVSGFSITNYGVHWIRQSPGKGLEWLGVIWSGGSTDYNAAFVSRVTISRDNSKSQVFFKLNSVQADDTAVYYCARSGKWYYFDYWGQGTTVTVSS VL: DIQMTQSPSSLSASVGDRVTITCRASENIYSNLAWYQQKPGKAPKLLVYAATNLADGVPSRFSGSGSGTDYTLTISSLQPEDFATYYCQHFWGTPTFGGGTKVEIK: 0.277

Turning now to a further binder:
Cell kill IC50, HekNectin4 reading for Nectin-4 5D9 VH4/VL1 (antibody, V domains shown, Humanized; also called 5D9 VH variant 4 / 5D9 VL variant 1; Nectin-4 VH4/VL1) VH: QVQLQQSGPGLVKPSETLSLTCTVSGFSLTNYGVHWVRQPPGKGLEWLGVIWSGGSTDYNPSLKSRLTISRDTSKNQVSFKMSSVTAADTAVYYCARSGKWYYFDYWGQGTLVTVSS VL: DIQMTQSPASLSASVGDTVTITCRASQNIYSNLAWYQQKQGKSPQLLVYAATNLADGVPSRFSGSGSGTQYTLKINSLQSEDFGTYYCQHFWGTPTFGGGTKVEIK : 0.182
